Biological target: h-GABA-A α5β3γ2 (Homo sapiens, UniProt P18507+P31644)
Test: [3H]flumazenil competition binding assay, membranes of HEK293 cells expressing GABAA receptors
Settings: displacement of [3H]-Flumazenil 0.5 nM, HEK293 cells expressing human receptors, mean of two determinations; Table 1
pKi: −log10 of the molar value.
Entries annotated with measured pKi
READOUT TYPE: pKi

>>> quantitative_result("Cc1ccc(-c2noc(C)c2Cn2ncc(N3CC4(C3)CC(F)(F)CO4)cc2=O)cn1")
8.14
>>> quantitative_result("Cc1onc(-c2ccc(Cl)nc2)c1Cn1ncc(N2CC(OC(C)C(F)(F)F)C2)cc1=O (single isomer, unassigned) [Example 265]")
7.59
>>> quantitative_result("Cc1ccc(-c2noc(CF)c2Cn2ncc(N3CC4(CCCCO4)C3)cc2=O)nn1")
7.90
>>> quantitative_result("C[C@@H]1CN(c2cnn(Cc3c(-c4ccc(Cl)cn4)noc3C3CC3)c(=O)c2)C[C@H](C)O1")
8.82
>>> quantitative_result("Cc1ccc(-c2noc(C)c2Cn2ncc(N3CC4(CC(F)CCO4)C3)cc2=O)nn1 (single isomer, unassigned)")
8.42
>>> quantitative_result("Cc1onc(-c2ccc(F)cc2)c1Cn1ncc(N2CCC(n3c(C)nnc3C)CC2)cc1=O")
7.36
>>> quantitative_result("Cc1ccc(-c2noc(C)c2Cn2ncc(N3CCC4(CC3)CC(F)CCO4)cc2=O)nn1 (single isomer, unassigned) [Example 326]")
8.72
>>> quantitative_result("Cc1onc(-c2ccc(C(F)(F)F)nn2)c1Cn1ncc(N2CC3(CCCCO3)C2)cc1=O")
8.04
>>> quantitative_result("Cc1ccc(-c2noc(C)c2Cn2ncc(N3CC4(CCC(C)CO4)C3)cc2=O)nn1 (single isomer, unassigned)")
8.10
>>> quantitative_result("Cc1ccc(-c2noc(C)c2Cn2ncc(-c3ccc(F)cc3)cc2=O)cn1")
7.92
>>> quantitative_result("COC1CN(c2cnn(Cc3c(-c4ncc(C(F)(F)F)cn4)noc3C)c(=O)c2)C1")
8.00
>>> quantitative_result("COc1ccccc1C1CCN(c2cnn(Cc3c(-c4ccc(C)nc4)noc3C)c(=O)c2)CC1")
7.81
>>> quantitative_result("CCc1onc(-c2ccc(C)nn2)c1Cn1ncc(N2CC3(CCCCO3)C2)cc1=O")
7.70
>>> quantitative_result("Cc1onc(-c2ncc(Cl)cc2F)c1Cn1ncc(N2CCN(C(=O)C3(C)CC3)CC2)cc1=O")
8.01
>>> quantitative_result("Cc1ccc(-c2noc(C)c2Cn2ncc(N3CC(OCC(F)F)C3)cc2=O)nn1")
8.92

###

Target: h-GABA-A α5β3γ2 (Homo sapiens, UniProt P18507+P31644)
Test: [3H]flumazenil competition binding assay, membranes of HEK293 cells expressing GABAA receptors
Conditions: displacement of [3H]-Flumazenil 0.5 nM, HEK293 cells expressing human receptors, mean of two determinations; Table 1
READOUT TYPE: Ki

>>> result("COc1ccc(-c2cnn(Cc3c(-c4ccc(C)nc4)noc3C)c(=O)c2)cc1")
"6.4 nM"
>>> result("Cc1ccc(-c2noc(C)c2Cn2ncc(N3C[C@@H](C)O[C@H](C)C3)cc2=O)cn1 (single isomer, unassigned)")
"0.5 nM"
>>> result("Cc1ccc(-c2noc(C)c2Cn2ncc(-c3cc(F)cnc3Cl)cc2=O)cn1")
"28.2 nM"
>>> result("Cc1onc(-c2ccc(Cl)nc2)c1Cn1ncc(N2CC3(CCOCC3)C2)cc1=O")
"36.6 nM"
>>> result("Cc1ccc(-c2noc(C)c2Cn2ncc(-c3ccc(OC(C)C)nc3)cc2=O)cn1")
"25.2 nM"
>>> result("Cc1onc(-c2ccc(Cl)nc2)c1Cn1ncc(N2CCC3(CCOCC3)CC2)cc1=O")
"24.6 nM"
>>> result("Cc1ccc(-c2noc(C)c2Cn2ncc(N3C[C@H]4COC[C@H]4C3)cc2=O)cn1")
"13 nM"
>>> result("Cc1ccc(-c2noc(C)c2Cn2ncc(N3CC(Oc4ccccc4)C3)cc2=O)cn1")
"7.8 nM"
>>> result("COc1cccc(-c2cnn(Cc3c(-c4ccc(C)nc4)noc3C)c(=O)c2)n1")
"26.2 nM"
>>> result("Cc1onc(-c2ccc(Cl)cn2)c1Cn1ncc(N2CC(OCC3CC3)C2)cc1=O")
"3.3 nM"
>>> result("Cc1onc(-c2ccc(Cl)nc2)c1Cn1ncc(N2C[C@@H](C)O[C@@H](C)C2)cc1=O")
"2.6 nM"
>>> result("Cc1ccc(-c2noc(C)c2Cn2ncc(N3CCC4(CCOCC4)CC3)cc2=O)nn1")
"2.8 nM"
>>> result("Cc1ccc(-c2noc(C)c2Cn2ncc(N3CC(OC(F)F)C3)cc2=O)cn1")
"9.4 nM"
>>> result("Cc1ccc(-c2noc(C)c2Cn2ncc(N(C)C3CC3)cc2=O)cn1")
"1.8 nM"
>>> result("Cc1ccc(-c2noc(C)c2Cn2ncc(-c3ccnc(N4CCNCC4)c3)cc2=O)cn1")
"11.4 nM"
>>> result("Cc1ccc(-c2noc(C)c2Cn2ncc(N3CC4(C[C@@H](OC(F)F)CO4)C3)cc2=O)nn1")
"3 nM"
